B1: library; a variant is named by its letters at N, in order (parent)
chain: GAGACCGCAACTGAAAAGTTGTGGNNNNNATAGTGAGTCGCTGCCTGCAAAGACACAACT

Variants of: B1
Test: ligation selection enrichment (abundance after / before one-round selection) (fold); higher = more template-directed ligation activity
Settings: with T7Psub CACGGAUGCUAAUACGACUCACUAUA; MgCl2 25 mM; 42 °C; 4 h; pH 8.5
Class fulfilled: ligation selection enrichment at least 0.2. Class not fulfilled: ligation selection enrichment below 0.2.

Request: Does the reported ligation selection enrichment for GAGAA fall at or above the 0.2 mark?
Response: fulfilled

Request: Does the reported ligation selection enrichment for TTAAC fall at or above the 0.2 mark?
Response: fulfilled

Request: Does the reported ligation selection enrichment for ATCGT fall at or above the 0.2 mark?
Response: fulfilled

Request: Does the reported ligation selection enrichment for CGGGA fall at or above the 0.2 mark?
Response: fulfilled

Request: Does the reported ligation selection enrichment for ACTCG fall at or above the 0.2 mark?
Response: fulfilled

Request: Does the reported ligation selection enrichment for TCACA fall at or above the 0.2 mark?
Response: not fulfilled

Request: Does the reported ligation selection enrichment for TTACG fall at or above the 0.2 mark?
Response: fulfilled

Request: Does the reported ligation selection enrichment for ATGTG fall at or above the 0.2 mark?
Response: fulfilled

Request: Does the reported ligation selection enrichment for ACAGA fall at or above the 0.2 mark?
Response: fulfilled

Request: Does the reported ligation selection enrichment for TGCTT fall at or above the 0.2 mark?
Response: not fulfilled
